Tested on: NCI/ADR-RES ovarian
Assay: NCI tumour cell line growth inhibition, 48 h; in the data active = GI50 below about 0.43 µM; inactive = the rest
Allowed answers: yes for active, no for inactive

Some solved entries appear below for comparison.
CC(C)N=c1cc2n(-c3ccc(Cl)cc3)c3ccccc3nc-2cc1Nc1ccc(Cl)cc1 ... no
O=C(Nc1ccc(CO)cc1)c1coc2ccccc2c1=O ... no
Cc1ccc(S(=O)(=O)NCCNc2nccc(-c3c(-c4ccc(F)cc4)nc4sccn34)n2)cc1 ... no
COc1ccc(-c2c[nH]c(=S)n2-c2ccc(OC)cc2)cc1 ... no
O=C(CSC(c1ccccc1)c1ccccc1)N/N=C/c1ccc(Cl)cc1Cl ... no

Input: Could you please tell me the result logged for CC(=O)O[C@H](C[C@H](C(C)C)N(C)C(=O)[C@@H](NC(=O)[C@H]1CCCCN1C)C(C)C)c1nc(C(=O)N[C@@H](Cc2ccccc2)C[C@H](C)C(=O)O)c(CCOCc2ccccc2)s1 in this assay?
Output: yes

Input: Please answer likewise for CCCCC1(CN2CCOCC2)S/C(=N/c2nc(CC(=O)OCC)cs2)NC1=O (stereo not given)
Output: no

Input: Also, COc1cc(C2=C(c3cn(C)c4ccccc34)COC2=O)cc(OC)c1OC please.
Output: yes

Input: Try O=C(Nc1ccc(Br)cc1)c1ccc(Cl)c(Cl)c1 next.
Output: no

Input: Now consider COCCOc1cnc2ccn([C@H](C)c3nnc4c(F)cc(-c5cnn(C)c5)cn34)c(=O)c2c1 and answer again.
Output: no
